protocolNotes: Mouse Pharmacokinetic Study (Example 1C)
Type: in vivo
assayConditions: mouse; CD-1 mice, iv, 3 mg/kg; plasma; read-out: Vdss
quantityName: Vd (L/kg)

Below, each entry is followed by its recorded Vd result.
Fc1cncc(-c2cc(OC3CCCC3)nc(NCCc3c[nH]c4ccccc34)n2)c1
11.2
C[C@H](O)c1cnn2c(N[C@@H]3CCc4[nH]c5ccccc5c4C3)nc(-c3cncc(F)c3)nc12
4.9
Cc1cnn2c(N[C@H]3Cc4ccc(O)cc4C3)cc(-c3cncc(F)c3)nc12
2.4
Cc1cnn2c(NCCc3c[nH]c4ccccc34)cc(-c3cncc(F)c3)nc12
3.2
Fc1cncc(-c2cc(NCCc3c[nH]c4ccccc34)n3ncc(Br)c3n2)c1
3.5
Cc1[nH]c2c(F)cc(F)cc2c1CCNc1cc(-c2cncc(F)c2)nc2c(C(C)C)cnn12
43.2

I = Cc1cnn2c(N[C@H]3CCc4[nH]ccc4C3)nc(-c3cncc(F)c3)nc12 [I-259a]
II = N#Cc1cnn2c(N[C@@H]3CCc4[nH]c5ccccc5c4C3)nc(-c3cncc(F)c3)nc12
III = C[C@@H](O)c1cnn2c(N[C@@H]3CCc4[nH]c5ccccc5c4C3)cc(-c3cncc(F)c3)nc12 [I-198a]
IV = C[C@H](O)c1cnn2c(NCCc3c[nH]c4ccccc34)cc(-c3cncc(F)c3)nc12 [I-222b]
Sort ascending by Vd. Would you mind listing the labels in the order asked for? IV, I, II, III

---

protocolNotes: Mouse Pharmacokinetic Study (Example 1C)
Assay type: in vivo
assayConditions: mouse; CD-1 mice, po, 30 mg/kg; plasma
quantityName: Cmax (ng/mL)

Below, each entry is followed by its recorded Cmax result.
CC(C)c1cnn2c(NCCc3c[nH]c4ccccc34)cc(-c3cncc(F)c3)nc12
182
O=C(c1cnn2c(NCCc3c[nH]c4ccccc34)cc(-c3cncc(F)c3)nc12)N1CCOCC1
574
Cc1cnn2c(N[C@H]3Cc4ccc(O)cc4C3)cc(-c3cncc(F)c3)nc12
48.9
CC(C)c1cnn2c(N[C@@H]3CCc4[nH]c5ccccc5c4C3)nc(-c3cncc(F)c3)nc12
853

P = C[C@H](O)c1cnn2c(N[C@@H]3CCc4[nH]c5ccccc5c4C3)nc(-c3cncc(F)c3)nc12
Q = N#Cc1cnn2c(N[C@@H]3CCc4[nH]c5ccccc5c4C3)nc(-c3cncc(F)c3)nc12
R = CN(C)c1cnn2c(NCCc3c[nH]c4ccccc34)cc(-c3cncc(F)c3)nc12
S = Cc1cnn2c(N[C@H]3CCc4[nH]ccc4C3)nc(-c3cncc(F)c3)nc12 [I-259a]
Sort ascending by Cmax. Would you mind listing the labels in the order asked for? P, S, R, Q

---

targetOrTestSystem: AHR (UniProt P35869)
Construct: IC50
Sequence (P35869 1-848): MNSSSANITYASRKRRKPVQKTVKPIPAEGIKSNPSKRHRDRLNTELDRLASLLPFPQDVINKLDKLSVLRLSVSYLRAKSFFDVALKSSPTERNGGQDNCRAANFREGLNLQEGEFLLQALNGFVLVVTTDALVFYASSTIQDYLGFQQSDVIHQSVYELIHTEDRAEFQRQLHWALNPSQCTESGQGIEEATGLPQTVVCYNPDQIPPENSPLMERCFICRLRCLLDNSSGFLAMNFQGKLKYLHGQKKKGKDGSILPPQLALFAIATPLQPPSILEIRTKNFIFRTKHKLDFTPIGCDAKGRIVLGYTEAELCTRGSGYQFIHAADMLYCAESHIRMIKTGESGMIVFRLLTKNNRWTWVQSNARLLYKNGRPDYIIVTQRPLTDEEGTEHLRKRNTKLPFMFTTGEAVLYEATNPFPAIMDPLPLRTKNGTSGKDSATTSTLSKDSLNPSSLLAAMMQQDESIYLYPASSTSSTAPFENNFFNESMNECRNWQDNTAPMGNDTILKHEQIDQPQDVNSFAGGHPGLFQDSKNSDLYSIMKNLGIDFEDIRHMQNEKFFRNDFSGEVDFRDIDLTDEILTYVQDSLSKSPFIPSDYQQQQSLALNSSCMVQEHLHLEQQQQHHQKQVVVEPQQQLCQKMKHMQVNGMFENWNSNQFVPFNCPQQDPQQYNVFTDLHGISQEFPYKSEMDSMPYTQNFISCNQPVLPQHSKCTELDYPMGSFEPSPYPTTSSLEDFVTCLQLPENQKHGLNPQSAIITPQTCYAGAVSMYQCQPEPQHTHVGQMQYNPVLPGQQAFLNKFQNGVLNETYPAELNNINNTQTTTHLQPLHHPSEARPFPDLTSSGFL
protocolNotes: DRE-Luciferase Reporter Assay (Alternate Method) (Example 1B)
Assay type: cell-based, murine or human
assayConditions: cell line and AHR activating ligand not specified
Reported IC50 by item:

CN1CCN(C(=O)c2cnn3c(NC4CCc5[nH]c6ccccc6c5C4)nc(-c4cncc(F)c4)nc23)CC1 (stereo not drawn) [I-251]
> 1.5 µM
Cc1cnn2c(NC[C@@H](C)c3c[nH]c4ccccc34)cc(-c3cncc(F)c3)nc12 [I-160a]
> 1.5 µM
CC(C)n1cnc2c(NCCc3ccc(O)cc3)nc(-c3csc4ccccc34)nc21 [I-233]
0.5 to 1 µM
CC(C)Oc1cc(-c2cncc(F)c2)nc(NCCc2c[nH]c3ccccc23)n1 [I-72]
< 0.5 µM
Cc1cnn2c(NC(CO)Cc3c[nH]c4ccccc34)cc(-c3cncc(F)c3)nc12 (stereo not drawn) [I-178]
> 1.5 µM
Cc1cnn2c(NCCc3cc[nH]c3)cc(-c3cncc(F)c3)nc12 [I-196]
< 0.5 µM
CC(C)c1cnn2c(NC3Cc4ccc(O)cc4C3)cc(-c3cncc(F)c3)nc12 (stereo not drawn) [I-109]
< 0.5 µM
CC(C)c1cnn2c(N[C@@H]3CCc4[nH]c5ccccc5c4C3)nc(-c3cncc(F)c3)nc12 [I-40]
< 0.5 µM
CC(C)c1cnn2c(NC3CCc4[nH]c5ccccc5c4C3)cc(-c3cccc4c3OCO4)nc12 (stereo not drawn) [I-228]
> 1.5 µM
CC(C)n1cnc2c(NCCc3c[nH]c4ccncc34)nc(-c3cncc(F)c3)nc21 [I-8]
> 1.5 µM

So what IC50 did Cc1cnn2c(NCCc3cc[nH]n3)cc(-c3cncc(F)c3)nc12 [I-180] get with AHR (UniProt P35869)? 0.5 to 1 µM

Can you handle CC(C)c1cnn2c(N[C@@H]3CCc4[nH]c5ccccc5c4C3)cc(-c3cncc(C#N)c3)nc12 [I-38] next? > 1.5 µM

Can you handle CC(C)c1csc2c(NCCc3c[nH]c4ccccc34)nc(-c3cncc(F)c3)nc12 [I-3] next? < 0.5 µM

Can you handle Fc1cncc(-c2ccnc(NCCc3c[nH]c4ccccc34)n2)c1 [I-120] next? > 1.5 µM

Can you handle CCc1cnn2c(NCCc3c[nH]c4ccccc34)cc(-c3cncc(F)c3)nc12 [I-237] next? < 0.5 µM

Can you handle CC(C)c1cnn2c(N[C@H]3CCc4[nH]c5ccccc5c4C3)cc(-c3cncc(F)c3)nc12 [I-75b] next? > 1.5 µM

Can you handle Cc1cnn2c(NCCc3c[nH]c4c(O)cccc34)cc(-c3cncc(F)c3)nc12 [I-172] next? 1 to 1.5 µM

Can you handle CC(C)n1cnc2c(NCCc3cnc4ccccn34)nc(-c3cncc(F)c3)nc21 [I-15] next? < 0.5 µM

---

protocolNotes: Mouse Pharmacokinetic Study (Example 1C)
Assay type: in vivo
assayConditions: mouse, plasma; CD-1 mice, po, 30 mg/kg
Protocol: Formulations of compounds set forth in Table 4 were administered intravenously or orally via gavage to CD-1 mice. […] Internal standard was added to each sample prior to protein precipitation with acetonitrile. The precipitates were filtered through a Phree phospholipid removal filter plate and the samples were analyzed by LC/MS/MS. […] The pharmacokinetics of each compound were analyzed by Phoenix WinNonlin software (Pharsight, St. Louis, Mo.) via non-compartmental analysis.
quantityName: bioavailability (%)

Below, each entry is followed by its recorded bioavailability result.
CN(C)c1cnn2c(N[C@@H]3CCc4[nH]c5ccccc5c4C3)nc(-c3cncc(F)c3)nc12
53
Fc1cncc(-c2cc(NCCc3c[nH]c4ccccc34)n3ncc(Br)c3n2)c1
17

P = C[C@@H](O)c1cnn2c(NCCc3c[nH]c4ccccc34)cc(-c3cncc(F)c3)nc12 [I-222a]
Q = C[C@@H](O)c1cnn2c(N[C@@H]3CCc4[nH]c5ccccc5c4C3)cc(-c3cncc(F)c3)nc12 [I-198a]
R = O=C(c1cnn2c(NCCc3c[nH]c4ccccc34)cc(-c3cncc(F)c3)nc12)N1CCOCC1
S = CC(C)c1cnn2c(N[C@@H]3CCc4[nH]ccc4C3)nc(-c3cncc(F)c3)nc12 [I-137b]
Sort ascending by bioavailability. Would you mind listing the labels in the order asked for? R, P, S, Q
(R: 7%, P: 16%, S: 28%, Q: 52%)

---

protocolNotes: Mouse Pharmacokinetic Study (Example 1C)
Format: in vivo
assayConditions: mouse; CD-1 mice, iv, 3 mg/kg; plasma
quantityName: half-life (h)

Below, each entry is followed by its recorded half-life result.
CC(C)c1cnn2c(N[C@H]3CCc4[nH]ccc4C3)nc(-c3cncc(F)c3)nc12 [I-137a]
8.2
CN(C)c1cnn2c(N[C@@H]3CCc4[nH]c5ccccc5c4C3)nc(-c3cncc(F)c3)nc12
14
O=C(c1cnn2c(NCCc3c[nH]c4ccccc34)cc(-c3cncc(F)c3)nc12)N1CCOCC1
0.7
Cc1cnn2c(N[C@@H]3CCc4[nH]c5ccccc5c4C3)nc(-c3cncc(F)c3)nc12
8.52
C[C@H](O)c1cnn2c(NCCc3c[nH]c4ccccc34)cc(-c3cncc(F)c3)nc12 [I-222b]
1.8

1 = CC(C)c1cnn2c(NCCc3c[nH]c4ccccc34)cc(-c3cncc(F)c3)nc12
2 = Fc1cncc(-c2cc(OC3CCCC3)nc(NCCc3c[nH]c4ccccc34)n2)c1
Endpoint returns whichever of 1 and 2 has the numerically higher half-life. To answer, give the label that identifies your chosen option. 2
(2: 6.6 h, 1: 1.99 h)
